experiment: RAM signaling pathway blockade in yeast – S. cerevisiae, Pdr1DBD-CYC8 efflux-inhibited sensitized strain, primary screen (AID 1298);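 note: 0% = DMSO untreated cells without growth and 100% = 10 µM 1-NA-PP1 full growth; higher means more yeast growth rescued from 5-FOA killing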; settings: S. cerevisiae cbk1-as DSE1-URA3 strain, 5-FOA growth OD615, 2 d; at 50 µM; stronger effect = higher value
Collected RAM network inhibition values appear next to each entry.
Your answer is read as %, so omit the unit and give the number.

Below, 8 compounds whose answers are already recorded.
- compound: "COc1ccc(C2C(C(=O)NCCN3CCOCC3)c3ccccc3C(=O)N2C)cc1OC (centres undefined)"
  u: "%"
  RAM network inhibition: 3.26
- compound: "O=C(Cn1c(=O)oc2cc(S(=O)(=O)N3CCCC3)ccc21)NCc1ccccn1"
  u: "%"
  RAM network inhibition: -0.87
- compound: "CS(=O)(=O)Nc1ccccc1Oc1ccccc1"
  u: "%"
  RAM network inhibition: -0.46
- compound: "Cc1ccccc1NC(=O)CSC(N)=O"
  u: "%"
  RAM network inhibition: 8.45
- compound: "O=C(CCCN1C(=O)c2ccccc2C1=O)Nc1ccccc1C(=O)N1CCOCC1"
  u: "%"
  RAM network inhibition: 3.36
- compound: "CCOC(=O)c1c(NC(=O)OC)sc(C(=O)N(CC)CC)c1C"
  u: "%"
  RAM network inhibition: 1.79
- compound: "CCOC(=O)C1CCN(C(=O)c2cn(C)c(=O)c3cc(OC)c(OC)cc23)CC1"
  u: "%"
  RAM network inhibition: 3.95
- compound: "O=C(Cn1cc2c(n1)CCCCC2)NCc1ccccn1"
  u: "%"
  RAM network inhibition: 4.15

Field request: RAM network inhibition | item: `Cn1cccc1Cc1nnc(SCC(=O)NC2CCCCC2)n1CCc1ccccc1`
8.9

Any idea what its RAM network inhibition is? The compound is CCCSc1nc2c(c(=O)n1CC)SC(C)C2 (centres undefined)
2.48

Request the reported RAM network inhibition associated with `Cc1ccsc1C(=O)OCC(=O)c1cc2ccccc2o1`
1.03

Any idea what RAM network inhibition was measured for Cc1c(C(=O)OCC2CCCO2)[nH]c2c1C(=O)CC(c1ccc(N(C)C)cc1)C2 (centres undefined) ?
6.62

Give the measured RAM network inhibition of Cc1cc(NC(=O)C2CC(c3ccc(F)cc3)=NO2)no1 (centres undefined) .
4.62

###

test: SK-BR-3 cell growth inhibitors, pilot screen, 24 h, human (AID 572); settings: SK-BR-3 viability, CellTiter-Glo luminescence, at 10 µM, stronger effect = lower value;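 note: compound exposure lasted between 18 and 24 h rather than exactly 24 h; 100% = carrier-treated control wells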
quantity_kind: viability (%)
The answer is to be given in %; state only the numeric part.

- compound: "CCn1c(SCC(=O)c2ccc(F)cc2)nnc1-c1ccoc1C"
  viability, %: 104
- compound: "O=C(/C=C1\\NC2(CCCC2)Cc2ccccc21)N1CCOCC1"
  viability, %: 101
- compound: "Cn1c(=O)c2c(nc(NCCCO)n2C/C=C/c2ccccc2)n(C)c1=O"
  viability, %: 73.5
- compound: "COc1cccc(NC(=O)COc2ccccc2C(N)=O)c1"
  viability, %: 93.5
- compound: "COc1ccc(C2c3c(-c4ccccc4O)n[nH]c3C(=O)N2CCc2ccc(OC)c(OC)c2)cc1 (stereo unspecified)"
  viability, %: 112
- compound: "CC[N+](C)(CC)CCOC(=O)C(O)(c1ccccc1)C1CCCCC1 (stereo unspecified)"
  viability, %: 91.5
- compound: "Cc1ccc(S(=O)(=O)CCc2nnc(NC(=O)c3cnccn3)s2)cc1"
  viability, %: 97.5
- compound: "CCc1cc(C(=O)OC)c(NC(=O)CCC(=O)O)s1"
  viability, %: 96.5

Would you mind telling me what viability value was observed for Cc1cc(C(=O)CSc2nnc(-c3ccco3)o2)c(C)n1CC1COc2ccccc2O1 (stereo unspecified) ?
91.5

Given the compound CCNC(=O)C1CC(=O)N(Cc2ccc3c(c2)OCO3)C(=Nc2ccc(F)cc2)S1 (stereo unspecified) , what is its reported viability?
124

What does the record list as viability for `O=C(CN1C(=O)CCSc2ccccc21)Nc1ccccc1` ?
113
